Exercise: state measured Growth Rate for each of the molecules provided.
tested on: Fibroblast; test: Incucyte cell viability with human fibroblast; assay type: toxicity, cell-based; conditions: 0 h, 10 µM, compound concentration 10 uM, replicate number 1, timepoint 0 hours; also: filed as whole numbers so only -1 and 0 and 1 occur
// no unit string in output, number only

Give a short answer stating reported Growth Rate for N#Cc1cccc(C(=O)Nc2cc(-c3ccccc3)nn2-c2ccccc2)c1 .
0

Give a short answer stating reported Growth Rate for CCCCN(Cc1ccccc1)C(=O)c1ccc(S(=O)(=O)Nc2ccccc2)cc1 .
0

Give a short answer stating reported Growth Rate for CC(C)[C@H](CO)Nc1nc(Nc2cccc(Cl)c2)c2ncn(C(C)C)c2n1 [PURVALANOLA] .
0

Give a short answer stating reported Growth Rate for Cc1c(F)cccc1NC(=O)Nc1ccc(Cl)c(S(=O)(=O)[C@H]2CCCNC2)c1O [DANIRIXIN] .
0

Give a short answer stating reported Growth Rate for C[C@@H](N)Cc1c[nH]cn1.Cl.Cl .
1

Give a short answer stating reported Growth Rate for CCc1cc(Nc2nccc(-c3c(-c4ccc(OC)c(C(=O)Nc5c(F)cccc5F)c4)nc4ccccn34)n2)c(OC)cc1N1CCC(N2CCN(S(C)(=O)=O)CC2)CC1 .
1

Give a short answer stating reported Growth Rate for CN(c1cc(C(F)(F)F)nc(OCCC(=O)O)n1)c1cccc2c1CCC2 .
1

Give a short answer stating reported Growth Rate for COc1ccc(Br)cc1S(=O)(=O)NC(=O)/C=C/c1ccccc1Cc1ccc2ccccc2c1 .
1

Give a short answer stating reported Growth Rate for COc1ccc(CCc2nc3cc(-c4c(C)noc4C)ccc3n2C[C@H](C)N2CCOCC2)cc1Cl .
0

Give a short answer stating reported Growth Rate for CCOC(=O)c1ncn2c1CN(C)C(=O)c1cc(F)ccc1-2 [FLUMAZENIL] .
0

Give a short answer stating reported Growth Rate for C/C(=C/C=C/C(C)=C/C(=O)O)c1cc(C(C)(C)C)cc(C(C)(C)C)c1OCC(F)F .
0

Give a short answer stating reported Growth Rate for CCC(=O)NC1Cc2ccccc2C(c2ccccc2)C1 (centres undefined) .
0

Give a short answer stating reported Growth Rate for CC(C)(N)C(=O)N[C@H](COCc1ccccc1)C(=O)N1CCC2(CC1)CN(S(C)(=O)=O)c1ccccc12.CS(=O)(=O)O [IBUTAMOREN MESYLATE] .
1

Give a short answer stating reported Growth Rate for Cc1c(C2=CCN(C(=O)N(C)C(C)C)CC2)nnn1-c1cccnc1F .
1

Give a short answer stating reported Growth Rate for COc1cccc(-c2c(C)n(Cc3c(F)cccc3C(F)(F)F)c(=O)n(C[C@H](NCCCC(=O)[O-])c3ccccc3)c2=O)c1F.[Na+] [ELAGOLIX SODIUM] .
0

Give a short answer stating reported Growth Rate for CC(Cc1ccc(O)c(O)c1)C(C)Cc1ccc(O)c(O)c1 (centres undefined) [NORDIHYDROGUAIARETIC ACID] .
0

Give a short answer stating reported Growth Rate for CN1C(=O)[C@@H](NC(=O)c2cc3ccccc3[nH]2)N=C(c2ccccc2)c2ccccc21 [DEVAZEPIDE] .
0

Give a short answer stating reported Growth Rate for CC(/C=C1\SC(=S)N(CCCC(=O)Nc2ccc(C(=O)O)c(O)c2)C1=O)=C\c1ccccc1 .
0

Give a short answer stating reported Growth Rate for NS(=O)(=O)c1cc(NC(=O)Cc2ccccc2)ccc1Oc1cccc(Cl)c1 [BAY-1797] .
0

###

system: Fibroblast; experiment: Multiplex assay against human fibroblast; type: toxicity, cell-based; conditions: 24 h, 1 µM, compound concentration 1 uM, replicate 1
Exercise: state measured Population Normal (%) for each of the compounds provided.
Numeric only. Scale: %

Please report Population Normal (%) with Fibroblast for item CCCc1cc(C)[nH]c(=O)c1CNC(=O)c1cc(-c2ccc(N3CCN(C(C)C)CC3)nc2)cc2c1cnn2C(C)C .
83

Please report Population Normal (%) with Fibroblast for item CN1C(=O)[C@@H](NC(=O)c2cc3ccccc3[nH]2)N=C(c2ccccc2)c2ccccc21 [DEVAZEPIDE] .
86

Please report Population Normal (%) with Fibroblast for item Cc1c(Nc2ccc(S(=O)(=O)N3CCN(C)CC3)cc2F)nc2ccc(-c3cnn(C4CC4)c3)cn2c1=O .
87

Please report Population Normal (%) with Fibroblast for item C[C@@H](Oc1cc(-n2cnc3ccc(CN4CCN(C)CC4)cc32)sc1C(N)=O)c1ccccc1C(F)(F)F .
82

Please report Population Normal (%) with Fibroblast for item CN(c1cc(C(F)(F)F)nc(OCCC(=O)O)n1)c1cccc2c1CCC2 .
88

Please report Population Normal (%) with Fibroblast for item Cc1ccc(NC(=O)Nc2cc(C(F)(F)F)ccc2F)cc1Nc1ccc2c(c1)NC(=O)/C2=C\c1ccc[nH]1 .
91

Please report Population Normal (%) with Fibroblast for item COc1cc(Nc2ccnc3ccc(Br)cc23)cc(OC)c1OC .
84

Please report Population Normal (%) with Fibroblast for item Cl.NC[C@@H]1O[C@H](C23CC4CC(CC(C4)C2)C3)Cc2c1ccc(O)c2O .
85

###

test system: HEK-293T; experiment: Multiplex assay against HEK293T; type: toxicity, cell-based; conditions: human, 12 h, 10 µM, compound concentration 10 uM, replicate 1
Assign a class from recorded Population Mitochondria Different-Phenotype (%); defined classes: low = under 40%, middle = from 40% up to 90%, high = 90% and over

Which category does the recorded Population Mitochondria Different-Phenotype (%) put C=CC(=O)Nc1cc(-n2c(=O)ccc3cnc4ccc(-c5ccc(NS(C)(=O)=O)cc5)cc4c32)ccc1C in?
middle

Which category does the recorded Population Mitochondria Different-Phenotype (%) put NC(=O)c1ccc2nc(-c3ccc(C4(N)CCC4)cc3)c(-c3ccccc3)n2n1 [BAY-1125976] in?
low

Which category does the recorded Population Mitochondria Different-Phenotype (%) put Cl.NC[C@@H]1O[C@H](C23CC4CC(CC(C4)C2)C3)Cc2c1ccc(O)c2O in?
high

Which category does the recorded Population Mitochondria Different-Phenotype (%) put N#Cc1cccc(C(=O)Nc2cc(-c3ccccc3)nn2-c2ccccc2)c1 in?
high

Which category does the recorded Population Mitochondria Different-Phenotype (%) put C[C@@H](Oc1cc(-n2cnc3ccc(CN4CCN(C)CC4)cc32)sc1C(N)=O)c1ccccc1C(F)(F)F [GSK-461364] in?
high

Which category does the recorded Population Mitochondria Different-Phenotype (%) put Cc1ccc(S(=O)(=O)NC2c3ccccc3Oc3ccccc32)cc1 in?
middle

Which category does the recorded Population Mitochondria Different-Phenotype (%) put CCCCCNC(=N)N/N=C/c1c[nH]c2ccc(OC)cc12.O=C(O)/C=C\C(=O)O [TEGASEROD MALEATE] in?
low

Which category does the recorded Population Mitochondria Different-Phenotype (%) put c1ccc(-c2oc3ncnc(NC[C@@H]4CCCO4)c3c2-c2ccccc2)cc1 in?
high

Which category does the recorded Population Mitochondria Different-Phenotype (%) put Cc1c(P(=S)(c2ccccc2)c2ccccc2)n2ccccc2[n+]1C/C=C/c1ccccc1.[Br-] in?
low

###

test system: Fibroblast; assay: Multiplex assay against human fibroblast; assay type: toxicity, cell-based; conditions: 48 h, 10 µM, compound concentration 10 uM, replicate 1
I would appreciate it if you labelled entries Y when Population Normal (%) is 70% or higher, otherwise N.

Does the compound CC(C)c1cc(Nc2nc(N3CCC[C@H](N)C3)ncc2C(N)=O)cc(C(C)C)n1 have recorded Population Normal (%) that is 70% or more?
N

Does the compound CCCCCNC(=N)N/N=C/c1c[nH]c2ccc(OC)cc12.O=C(O)/C=C\C(=O)O [TEGASEROD MALEATE] have recorded Population Normal (%) that is 70% or more?
N

Does the compound CC(C)[C@H](CO)Nc1nc(Nc2cccc(Cl)c2)c2ncn(C(C)C)c2n1 have recorded Population Normal (%) that is 70% or more?
Y

Does the compound CCCc1cc(C)[nH]c(=O)c1CNC(=O)c1cc(-c2ccc(N3CCN(C(C)C)CC3)nc2)cc2c1cnn2C(C)C have recorded Population Normal (%) that is 70% or more?
N

Does the compound Cl.NC[C@@H]1O[C@H](C23CC4CC(CC(C4)C2)C3)Cc2c1ccc(O)c2O have recorded Population Normal (%) that is 70% or more?
Y

Does the compound Oc1cccc(-c2nc(N3CCOCC3)c3oc4ncccc4c3n2)c1 have recorded Population Normal (%) that is 70% or more?
N

Does the compound C[C@@H](Oc1cc(-n2cnc3ccc(CN4CCN(C)CC4)cc32)sc1C(N)=O)c1ccccc1C(F)(F)F have recorded Population Normal (%) that is 70% or more?
N

Does the compound N#CCNC(=O)c1ccc(-c2ccnc(Nc3ccc(N4CCOCC4)cc3)n2)cc1 have recorded Population Normal (%) that is 70% or more?
Y

Does the compound CN1C(=O)[C@@H](NC(=O)c2cc3ccccc3[nH]2)N=C(c2ccccc2)c2ccccc21 [DEVAZEPIDE] have recorded Population Normal (%) that is 70% or more?
Y

###

test system: HEK-293T; experiment: Multiplex assay against HEK293T; type: toxicity, cell-based; conditions: human, 24 h, 10 µM, compound concentration 10 uM, replicate 1
Exercise: state measured Population Membrane Permeable-Phenotype (%) for each of the compounds provided.
Kindly format the answer as number then unit.

Give a short answer stating reported Population Membrane Permeable-Phenotype (%) for Cl.NC[C@@H]1O[C@H](C23CC4CC(CC(C4)C2)C3)Cc2c1ccc(O)c2O .
4%

Give a short answer stating reported Population Membrane Permeable-Phenotype (%) for N#CCNC(=O)c1ccc(-c2ccnc(Nc3ccc(N4CCOCC4)cc3)n2)cc1 .
3%

Give a short answer stating reported Population Membrane Permeable-Phenotype (%) for N#Cc1cccc(C(=O)Nc2cc(-c3ccccc3)nn2-c2ccccc2)c1 .
4%

Give a short answer stating reported Population Membrane Permeable-Phenotype (%) for CC(/C=C1\SC(=S)N(CCCC(=O)Nc2ccc(C(=O)O)c(O)c2)C1=O)=C\c1ccccc1 .
2%

Give a short answer stating reported Population Membrane Permeable-Phenotype (%) for Cc1c(P(=S)(c2ccccc2)c2ccccc2)n2ccccc2[n+]1C/C=C/c1ccccc1.[Br-] .
0%

Give a short answer stating reported Population Membrane Permeable-Phenotype (%) for CC(C)c1cc(Nc2nc(N3CCC[C@H](N)C3)ncc2C(N)=O)cc(C(C)C)n1 .
0%

Give a short answer stating reported Population Membrane Permeable-Phenotype (%) for Cc1c(Nc2ccc(S(=O)(=O)N3CCN(C)CC3)cc2F)nc2ccc(Nc3cnn(C4CC4)c3)cn2c1=O .
9%

Give a short answer stating reported Population Membrane Permeable-Phenotype (%) for c1ccc(-c2oc3ncnc(NC[C@@H]4CCCO4)c3c2-c2ccccc2)cc1 .
0%

Give a short answer stating reported Population Membrane Permeable-Phenotype (%) for CCOC(=O)CCNc1cc(N2CCc3ccccc3CC2)nc(-c2ccccn2)n1 .
4%

Give a short answer stating reported Population Membrane Permeable-Phenotype (%) for CC[C@@]1(O)C(=O)OCc2c1cc1n(c2=O)Cc2cc3ccccc3nc2-1 .
4%

Give a short answer stating reported Population Membrane Permeable-Phenotype (%) for CC(Cc1ccc(O)c(O)c1)C(C)Cc1ccc(O)c(O)c1 (centres undefined) [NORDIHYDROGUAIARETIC ACID] .
0%

Give a short answer stating reported Population Membrane Permeable-Phenotype (%) for C=CC(=O)Nc1cc(-n2c(=O)ccc3cnc4ccc(-c5ccc(NS(C)(=O)=O)cc5)cc4c32)ccc1C .
0%

Give a short answer stating reported Population Membrane Permeable-Phenotype (%) for COc1ccccc1-c1cc(Nc2cccc(CS(N)(=O)=O)c2)ncn1 .
8%

Give a short answer stating reported Population Membrane Permeable-Phenotype (%) for Cc1c(Nc2ccc(S(=O)(=O)N3CCN(C)CC3)cc2F)nc2ccc(-c3cnn(C4CC4)c3)cn2c1=O .
8%
